# PROTOCOL SUMMARY: Chemical stability in acidic solution (acid stability)
# Format: physicochemical
# EXPERIMENTAL SETUP: pH 4.5 chemical solution; pH 4.5, 37° C.; read-out: Acid Stability (T ½, mins @ pH 4.5)
PARAMETER MEASURED: half-life at 1 µg/mL

See these solved cases before continuing.
- COMPOUND: "CC12OC(=O)O[C@@H]1[C@@H](CO)O[C@H]2n1cc2c3c(ncnc31)NC(=O)C=C2N (stereo partly drawn)"
  half-life at 1 µg/mL: "< 30 min"
- COMPOUND: "CCCCCOC(=O)OC[C@H]1O[C@@H](n2cc3c4c(ncnc42)NC(=O)C=C3N)[C@@](C)(O)[C@@H]1O (stereo in doubt)"
  half-life at 1 µg/mL: "≤ 30 min"
- COMPOUND: "CC(C)C(=O)O[C@@H]1[C@@H](CO)O[C@@H](n2cc3c4c(ncnc42)NC(=O)C=C3N)C1(C)O (stereo in doubt)"
  half-life at 1 µg/mL: "< 30 min"
- COMPOUND: "CC(=O)N[C@H](C(=O)OC[C@H]1O[C@@H](n2cc3c4c(ncnc42)NC(=O)C=C3N)C(C)(O)[C@@H]1O)C(C)C (stereo partly drawn)"
  half-life at 1 µg/mL: "< 30 min"
- COMPOUND: "CC(C)C(=O)OCOC(=O)NC1=CC(=O)Nc2ncnc3c2c1cn3[C@@H]1O[C@H](CO)[C@@H](O)[C@]1(C)O (stereo in doubt)"
  half-life at 1 µg/mL: "> 120 min"
- COMPOUND: "CC(=O)OC[C@H]1O[C@@H](n2cc3c4c(ncnc42)NC(=O)C=C3N)[C@@](C)(O)[C@@H]1OC(C)=O (stereo in doubt)"
  half-life at 1 µg/mL: "< 15 min"
- COMPOUND: "CC(C)C(=O)OC[C@H]1O[C@@H](n2cc3c4c(ncnc42)NC(=O)C=C3N)[C@@]2(C)OC(=O)O[C@H]12"
  half-life at 1 µg/mL: "< 30 min"
- COMPOUND: "CCCCCOC(=O)NC1=CC(=O)Nc2ncnc3c2c1cn3[C@@H]1O[C@H](CO)[C@@H](O)[C@@]1(C)O"
  half-life at 1 µg/mL: "> 120 min"

Go through the list and state half-life at 1 µg/mL for each entry.
1. CC(=O)OC[C@H]1O[C@@H](n2cc3c4c(ncnc42)NC(=O)C=C3N)[C@@]2(C)OC(=O)O[C@H]12
2. CCCCCC(=O)OC[C@H]1O[C@@H](n2cc3c4c(ncnc42)NC(=O)C=C3N)[C@@](C)(O)[C@@H]1O (stereo in doubt)

**A:**
1: < 15 min; 2: < 30 min

Go through the list and state half-life at 1 µg/mL for each entry.
1. CCCCCC(=O)O[C@@H]1[C@@H](CO)O[C@@H](n2cc3c4c(ncnc42)NC(=O)C=C3N)[C@]1(C)O
2. CC1(O)C(O)C(CO)OC1n1cc2c3c(ncnc31)NC(=O)C=C2N (stereo not drawn) [Compound 100, reference compound]

**A:**
1. < 30 min
2. < 15 min

###

# PROTOCOL SUMMARY: Chemical stability in acidic solution (acid stability)
# Assay type: physicochemical
# EXPERIMENTAL SETUP: pH 4.5 chemical solution; pH 4.5, 37° C.; read-out: Acid Stability (T ½, mins @ pH 4.5)
PARAMETER MEASURED: half-life at 1 µg/mL

See these solved cases before continuing.
- COMPOUND: "CC(C)C(=O)OCOC(=O)NC1=CC(=O)Nc2ncnc3c2c1cn3[C@@H]1O[C@H](COC(=O)C(C)C)[C@@H](O)C1(C)O (stereo partly drawn) [Compound 129]"
  MEASURED: "> 120 min"
- COMPOUND: "CC(C)C(=O)OC[C@H]1O[C@@H](n2cc3c4c(ncnc42)NC(=O)C=C3N)[C@@](C)(O)[C@@H]1OC(=O)C(C)C (stereo in doubt) [Compound 134]"
  MEASURED: "< 30 min"

Next up:
**Q:** Name the recorded half-life at 1 µg/mL for CC(C)C(=O)OC[C@H]1O[C@@H](n2cc3c4c(ncnc42)NC(=O)C=C3N)[C@@](C)(O)[C@@H]1O (stereo in doubt) [Compound 105] .
**A:** < 30 min

These entries and their values trace back to patent US20090062223A1.
